experimental-protocol: LAP4-GFP expression modulators in yeast, confirmation, cell-based, cherry picks, flow cytometry, mother/daughter gates (AID 2271);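 note: ratio of sample to DMSO plate mean so 100% equals DMSO level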
conditions-used: S. cerevisiae LAP4-GFP strain, 3 h, measured here: daughter cell gate response, at 10 µM, stronger effect = higher value, 100 means same as DMSO control
Field: GFP response relative to DMSO. Provide a value for each of the compounds that follow.
Unit % implied. Number only.

What value of GFP response relative to DMSO has been reported for the following compound? COc1ccc(C2=CC(=O)N(Nc3ccccc3)C2=O)cc1
170

And for CN(C)S(=O)(=O)c1cc(NC(=O)CN2CCOCC2)ccc1Cl ?
99

And for O=C(CSc1nnc(C2COc3ccccc3O2)o1)N1CCCC1 (stereo not drawn) ?
98.2

And for C/C(=N\NC(=O)c1c(Br)c(C)nn1C)c1cccc(NC(=O)C2CCC2)c1 ?
97.9

And for Cc1ccc(/C=C/C(=O)c2ccccc(=O)c2O)c(C)c1 ?
146

And for COCc1cc(=O)[nH]c(SCCS(=O)(=O)c2ccc(Cl)cc2Cl)n1 ?
100

And for CCOC(=O)CNc1c(-c2ccc(O)cc2)nc2ccccn12 ?
104

And for COc1ccc(/C=C/C(=O)c2ccccc2O)cc1 ?
99.3

And for O=C(COC(=O)c1n[nH]c2ccccc12)c1cccc(Br)c1 ?
101

And for COc1ccc(C(=O)c2nccc3ccccc23)cc1 ?
104

And for O=S1(=O)Nc2c(ccc3cccnc23)-c2ccccc21 ?
104

And for O=C(Nc1nnc(-c2ccc(F)cc2)o1)c1cccc([N+](=O)[O-])c1 ?
169

And for CC(C)c1ccc(C2C3CSCC=C3C(C#N)=C(N)C2(C#N)C#N)cc1 (stereo not drawn) ?
108

And for COc1ccc(N2C(=O)CC(Sc3nccc(C)n3)C2=O)cc1 (stereo not drawn) ?
101

And for Cc1ccc(C(=O)/C=C/C(=O)c2ccc(C)cc2)cc1 ?
190

And for O=C(Nc1nnc(-c2ccccc2Cl)o1)c1ccc(S(=O)(=O)N2CCCCCC2)cc1 ?
97.5

And for COc1ccccc1C1CC(c2c(-c3ccccc3)c3cc(Cl)ccc3[nH]c2=O)=NN1S(C)(=O)=O (stereo not drawn) ?
107

And for CCOC(=O)/C(=C\c1cn(C)c2ccccc12)[N+](=O)[O-] ?
163

And for O=C(NNC(=S)NC(=O)c1cn(-c2ccccc2)nc1-c1ccccc1)c1ccncc1 ?
125

And for CCCc1[nH]nc2c1C(c1ccc(OCCN3CCOCC3)c(OCC)c1)C(C#N)=C(N)O2 (stereo not drawn) ?
95.6

And for O=C(Oc1c(Cl)cc(Cl)c2cccnc12)c1ccco1 ?
148

And for O=C1C(=O)c2ccc(-c3ccccc3)cc2-c2ccccc21 ?
110

And for Cc1ccc(S(=O)(=O)N(CC(=O)NCc2ccncc2)Cc2ccccc2F)cc1 ?
99.2
